Some compounds, each annotated with its measured viability at 90 µM.
# Test: The compound was evaluated for cytotoxicity against VERO cells using Dye test at a concentration 90 uM
# Type: cell-based
# Condition summary: chlorocebus sabaeus, read-out: Cellular growth
Please make sure the unit comes right after the number.

# Chemical smiles, Result
records = [
    ("CSc1nc2c([nH]1)C(=O)C=CC2=O", "73.6%"),
]

Turning to the following compound.
If you can, please state the reported viability at 90 µM value of COC1=CC(=O)c2[nH]c(-c3ccccn3)nc2C1=O .
16.4%

---

# Test: The compound was evaluated for cytotoxicity against VERO cells using Dye test at a concentration 11.2 uM
# Assay type: cell-based
# Condition summary: chlorocebus sabaeus, read-out: Cellular growth
Assay endpoint: viability at 11.2 µM (%)
Answer in %, number only, no unit symbol.

# Chemical smiles, viability at 11.2 µM, %
records = [
    ("COC1=CC(=O)c2[nH]c(-c3ccccn3)nc2C1=O", 71.2),
]

Consider now this further compound.
So what's the measured viability at 11.2 µM for this one? CSc1nc2c([nH]1)C(=O)C=CC2=O
101
